Numbers sourced from patent US20220402995A1.

- STUDY TARGET: T1, VLP2 (virus-like particles of AAV2) (AAV2, UniProt P03135 1-735; P03135 1-598; P03135 1-533)
- T1 construct: Empty AAV2 capsid; background says about 60 protein molecules, VP1:VP2:VP3 = 1:1:10; Immobilised on the ELISA plate
- T1 sequence (P03135 whole entry, chain 1 of 3): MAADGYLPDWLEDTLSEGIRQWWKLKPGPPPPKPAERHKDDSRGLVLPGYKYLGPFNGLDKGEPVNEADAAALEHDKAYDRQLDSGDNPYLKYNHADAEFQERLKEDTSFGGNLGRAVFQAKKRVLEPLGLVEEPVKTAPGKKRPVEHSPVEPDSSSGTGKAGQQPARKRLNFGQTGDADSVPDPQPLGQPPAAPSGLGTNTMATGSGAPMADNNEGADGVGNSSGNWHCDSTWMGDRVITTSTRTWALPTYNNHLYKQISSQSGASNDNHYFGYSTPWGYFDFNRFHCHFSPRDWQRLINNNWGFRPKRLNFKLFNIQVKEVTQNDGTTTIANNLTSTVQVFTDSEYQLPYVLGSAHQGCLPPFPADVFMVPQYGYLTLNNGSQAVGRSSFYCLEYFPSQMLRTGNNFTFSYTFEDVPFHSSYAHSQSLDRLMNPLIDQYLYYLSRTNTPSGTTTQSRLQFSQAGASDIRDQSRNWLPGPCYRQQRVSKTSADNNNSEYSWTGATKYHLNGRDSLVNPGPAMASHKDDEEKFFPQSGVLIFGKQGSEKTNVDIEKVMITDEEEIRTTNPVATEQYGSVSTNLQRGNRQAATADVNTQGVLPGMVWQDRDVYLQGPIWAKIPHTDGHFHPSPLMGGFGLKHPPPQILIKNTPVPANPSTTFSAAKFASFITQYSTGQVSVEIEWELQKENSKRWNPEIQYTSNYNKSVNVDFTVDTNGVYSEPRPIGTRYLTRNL
- T1 sequence (P03135 139-735, tags left off, chain 2 of 3): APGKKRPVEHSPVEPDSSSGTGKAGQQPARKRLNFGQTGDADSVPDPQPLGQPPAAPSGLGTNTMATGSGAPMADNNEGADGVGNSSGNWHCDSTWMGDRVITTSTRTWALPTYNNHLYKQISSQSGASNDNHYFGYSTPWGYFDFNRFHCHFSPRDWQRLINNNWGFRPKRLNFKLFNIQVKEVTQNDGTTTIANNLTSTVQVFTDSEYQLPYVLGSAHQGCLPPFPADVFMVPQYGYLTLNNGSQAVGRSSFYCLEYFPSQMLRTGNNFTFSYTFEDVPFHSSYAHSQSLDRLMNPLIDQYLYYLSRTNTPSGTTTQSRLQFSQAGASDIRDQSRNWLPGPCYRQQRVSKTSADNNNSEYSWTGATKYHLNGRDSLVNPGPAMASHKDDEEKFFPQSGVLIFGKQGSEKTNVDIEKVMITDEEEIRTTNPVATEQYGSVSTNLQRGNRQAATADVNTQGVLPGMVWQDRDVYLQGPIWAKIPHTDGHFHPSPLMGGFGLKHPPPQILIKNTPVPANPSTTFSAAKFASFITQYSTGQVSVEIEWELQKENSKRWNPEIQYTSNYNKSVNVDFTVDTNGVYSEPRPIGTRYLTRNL
- T1 sequence (P03135 203-735, chain 3 of 3): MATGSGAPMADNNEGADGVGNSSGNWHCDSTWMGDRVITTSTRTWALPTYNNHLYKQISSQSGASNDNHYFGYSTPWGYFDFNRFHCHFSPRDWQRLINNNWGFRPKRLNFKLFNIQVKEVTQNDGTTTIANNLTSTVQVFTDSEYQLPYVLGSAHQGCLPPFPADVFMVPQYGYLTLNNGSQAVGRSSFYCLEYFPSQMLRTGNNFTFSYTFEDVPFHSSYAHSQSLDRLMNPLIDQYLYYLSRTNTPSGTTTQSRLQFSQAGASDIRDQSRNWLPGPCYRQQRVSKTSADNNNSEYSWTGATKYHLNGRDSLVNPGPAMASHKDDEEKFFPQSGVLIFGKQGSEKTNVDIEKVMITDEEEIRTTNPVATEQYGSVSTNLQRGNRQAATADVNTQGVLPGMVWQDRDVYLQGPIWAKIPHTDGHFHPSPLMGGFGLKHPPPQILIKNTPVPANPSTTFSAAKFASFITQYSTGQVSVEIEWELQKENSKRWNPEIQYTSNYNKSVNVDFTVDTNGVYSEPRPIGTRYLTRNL
- TEST DESCRIPTION: ELISA on VLP2; A450 after pH 2.5 30°C 2 h / untreated
Residual activity [%] vs 50%: at or above is True, below is False.

{"BINDER": "AAV-binding protein No. 53 (Asp354Gly, Leu369Gln, Lys455Arg) (receptor) MGSAGESVQITLPKNEVQLNAYVLQEPPKGETYTYDWQLITHPRGYSGEMEGKHSQILKQSKLTPGLYEFKVIVEGQNAHGEGYVNVTVKPEPRKNRPPIAIVSPQFQEISLPTTSTVIDGSQSTDDDKIVQYHWEELKGPLREERISEDTAILKLSKLVPGNYTFSLTVVDSDGATNSTTANLTVNKAVDHHHHHH", "CATEGORY": "False"}
{"BINDER": "AAV-binding protein No. 36 (Tyr355His, Asn387Ser) (receptor) MGSAGESVQITLPKNEVQLNAYVLQEPPKGETYTYDWQLITHPRDHSGEMEGKHSQILKLSKLTPGLYEFKVIVEGQSAHGEGYVNVTVKPEPRKNRPPIAIVSPQFQEISLPTTSTVIDGSQSTDDDKIVQYHWEELKGPLREEKISEDTAILKLSKLVPGNYTFSLTVVDSDGATNSTTANLTVNKAVDHHHHHH", "CATEGORY": "False"}
{"BINDER": "AAV-binding protein No. 29 (Leu333Val, Tyr342Cys) (receptor) MGSAGESVQITLPKNEVQLNAYVVQEPPKGETCTYDWQLITHPRDYSGEMEGKHSQILKLSKLTPGLYEFKVIVEGQNAHGEGYVNVTVKPEPRKNRPPIAIVSPQFQEISLPTTSTVIDGSQSTDDDKIVQYHWEELKGPLREEKISEDTAILKLSKLVPGNYTFSLTVVDSDGATNSTTANLTVNKAVDHHHHHH", "CATEGORY": "True"}
{"BINDER": "AAV-binding protein No. 47 (Asn329Tyr, Tyr377Cys, Arg406Ser) (receptor) MGSAGESVQITLPKNEVQLYAYVLQEPPKGETYTYDWQLITHPRDYSGEMEGKHSQILKLSKLTPGLCEFKVIVEGQNAHGEGYVNVTVKPEPRKNSPPIAIVSPQFQEISLPTTSTVIDGSQSTDDDKIVQYHWEELKGPLREEKISEDTAILKLSKLVPGNYTFSLTVVDSDGATNSTTANLTVNKAVDHHHHHH", "CATEGORY": "False"}
{"BINDER": "AVR2 (AAV-binding protein No. 32, Tyr342Cys-Gly390Ser substitution product) (receptor) MGSAGESVQITLPKNEVQLNAYVLQEPPKGETCTYDWQLITHPRDYSGEMEGKHSQILKLSKLTPGLYEFKVIVEGQNAHSEGYVNVTVKPEPRKNRPPIAIVSPQFQEISLPTTSTVIDGSQSTDDDKIVQYHWEELKGPLREEKISEDTAILKLSKLVPGNYTFSLTVVDSDGATNSTTANLTVNKAVDHHHHHH", "CATEGORY": "True"}
{"BINDER": "AAV-binding protein No. 43 (Leu321Pro, Tyr342Asn, Ala461Ser) (receptor) MGSAGESVQITPPKNEVQLNAYVLQEPPKGETNTYDWQLITHPRDYSGEMEGKHSQILKLSKLTPGLYEFKVIVEGQNAHGEGYVNVTVKPEPRKNRPPIAIVSPQFQEISLPTTSTVIDGSQSTDDDKIVQYHWEELKGPLREEKISEDTSILKLSKLVPGNYTFSLTVVDSDGATNSTTANLTVNKAVDHHHHHH", "CATEGORY": "False"}
{"BINDER": "AAV-binding protein No. 49 (Tyr331Cys, Thr343Met, Tyr355Cys) (receptor) MGSAGESVQITLPKNEVQLNACVLQEPPKGETYMYDWQLITHPRDCSGEMEGKHSQILKLSKLTPGLYEFKVIVEGQNAHGEGYVNVTVKPEPRKNRPPIAIVSPQFQEISLPTTSTVIDGSQSTDDDKIVQYHWEELKGPLREEKISEDTAILKLSKLVPGNYTFSLTVVDSDGATNSTTANLTVNKAVDHHHHHH", "CATEGORY": "True"}
{"BINDER": "AAV-binding protein No. 16 (Leu369Gln) (receptor) MGSAGESVQITLPKNEVQLNAYVLQEPPKGETYTYDWQLITHPRDYSGEMEGKHSQILKQSKLTPGLYEFKVIVEGQNAHGEGYVNVTVKPEPRKNRPPIAIVSPQFQEISLPTTSTVIDGSQSTDDDKIVQYHWEELKGPLREEKISEDTAILKLSKLVPGNYTFSLTVVDSDGATNSTTANLTVNKAVDHHHHHH", "CATEGORY": "False"}
{"BINDER": "AAV-binding protein No. 45 (Asn329Asp, Tyr342His, Tyr355Cys) (receptor) MGSAGESVQITLPKNEVQLDAYVLQEPPKGETHTYDWQLITHPRDCSGEMEGKHSQILKLSKLTPGLYEFKVIVEGQNAHGEGYVNVTVKPEPRKNRPPIAIVSPQFQEISLPTTSTVIDGSQSTDDDKIVQYHWEELKGPLREEKISEDTAILKLSKLVPGNYTFSLTVVDSDGATNSTTANLTVNKAVDHHHHHH", "CATEGORY": "True"}
{"BINDER": "AAV-binding protein No. 9 (Pro352Leu) (receptor) MGSAGESVQITLPKNEVQLNAYVLQEPPKGETYTYDWQLITHLRDYSGEMEGKHSQILKLSKLTPGLYEFKVIVEGQNAHGEGYVNVTVKPEPRKNRPPIAIVSPQFQEISLPTTSTVIDGSQSTDDDKIVQYHWEELKGPLREEKISEDTAILKLSKLVPGNYTFSLTVVDSDGATNSTTANLTVNKAVDHHHHHH", "CATEGORY": "False"}
{"BINDER": "AAV-binding protein No. 30 (Glu340Gly, Tyr342Cys) (receptor) MGSAGESVQITLPKNEVQLNAYVLQEPPKGGTCTYDWQLITHPRDYSGEMEGKHSQILKLSKLTPGLYEFKVIVEGQNAHGEGYVNVTVKPEPRKNRPPIAIVSPQFQEISLPTTSTVIDGSQSTDDDKIVQYHWEELKGPLREEKISEDTAILKLSKLVPGNYTFSLTVVDSDGATNSTTANLTVNKAVDHHHHHH", "CATEGORY": "True"}
{"BINDER": "wild-type AAV-binding protein (extracellular domains 1 and 2, PKD1 and PKD2, of KIAA0319L/AAVR, positions 312-500 of SEQ ID NO: 1, with His tag) (receptor, Expressed in E. coli; tested as extract, culture supernatant or purified protein; also called wild-type AVR; product of pET-AAVRD2) MGSAGESVQITLPKNEVQLNAYVLQEPPKGETYTYDWQLITHPRDYSGEMEGKHSQILKLSKLTPGLYEFKVIVEGQNAHGEGYVNVTVKPEPRKNRPPIAIVSPQFQEISLPTTSTVIDGSQSTDDDKIVQYHWEELKGPLREEKISEDTAILKLSKLVPGNYTFSLTVVDSDGATNSTTANLTVNKAVDHHHHHH", "CATEGORY": "False"}
